Test system: HeLa
Assay: Cytotoxicity of compound against HeLa S3 cells without photoirradiation
Assay type: functional, cell-based
Settings: Homo sapiens, light or radiation study
Readout name: IC50

Input line: For CC1O[C@H](OC2C(O)C[C@H](OCCOC(=O)c3cnc4ccccc4n3)OC2C)CC(N)C1O (stereo partly specified) , what is its reported IC50?
Output line: > 100 µM
